Property: % Inhibition; scope: individual compounds
Test system: P. falciparum stage V gametocytes
Parameters: BacTiter-Glo ATP luminescence viability of purified stage V gametocytes in 384-well plates, per cent inhibition versus DMSO
CONDITION PARAMETERS: 48 h, 5 µM; inhibitor
In all, about 13,000 compounds went through this assay and about 3,200 (25%) showed an effect of 50% or more. The list shows a part of the results.
ASSAY READOUT: % Inhibition

>>> df
                                    compound  assay_readout   reading
 0  O=S(=O)(NCCN1CCCC1)c1ccc(-c2ccc(CNCc3ccc(F)cc3)cc2)s1 [TCMDC-132284]   % Inhibition    66.59%
 1  Oc1cccc(C2CCCN(Cc3cccc4cc[nH]c34)C2)c1 (centres unmarked) [TCMDC-134419]   % Inhibition   -7.919%
 2  Cc1nc(N)nc(N)c1OCCCOc1ccccc1Br [TCMDC-131364]   % Inhibition  -0.5645%
 3  O=C(Cc1cccc2ccccc12)NC1CCN(c2ccnc3cc(Cl)ccc23)C1 (centres unmarked) [TCMDC-133666]   % Inhibition   -21.93%
 4  CCOc1c(CNCCCNc2nc3ccccc3[nH]2)cc(I)cc1OC [TCMDC-140105]   % Inhibition    34.54%
 5  CCOc1c(Br)cc(Br)cc1CNCCCCNc1nc2ccccc2[nH]1 [TCMDC-139968]   % Inhibition   0.6072%
 6  N=C(N)c1ccc(-c2cc3ccc(C(=N)N)cc3[nH]2)cc1 [TCMDC-123458]   % Inhibition     53.3%
 7  Cc1cccc(OC(C)C(=O)Nc2cc(C(F)(F)F)ccc2N2CCOCC2)c1 (centres unmarked) [TCMDC-125116]   % Inhibition   -67.15%
 8  Brc1cc(CNCCCNc2nc3ccccc3[nH]2)sc1Br [TCMDC-139801]   % Inhibition     12.5%
 9  CCOc1c(CNCCCNc2nc3ccccc3[nH]2)cc(Br)cc1OC [TCMDC-140089]   % Inhibition    52.36%
10  Cc1cc(CNCCCCCCNCc2ccc(-c3ccccc3)cc2)ccc1O [TCMDC-140412]   % Inhibition    99.09%
11  O=c1cc(NCCCNCc2cc3c(Cl)cc(Cl)cc3[nH]2)[nH]c2ccccc12 [TCMDC-139789]   % Inhibition    2.174%
12     O=S(=O)(c1ccccc1)C1CC1 [TCMDC-132010]   % Inhibition    2.082%
13  Cc1cc(CNCCCCCCNCc2ccc(Cl)cc2)ccc1O [TCMDC-140414]   % Inhibition    43.51%
14  O=C(NC1CCN(CCCOc2ccnc3cc(Cl)ccc23)C1)c1ccc(Br)cc1 (centres unmarked) [TCMDC-136147]   % Inhibition    -6.07%
15  N#Cc1ccc2c(c1)CCN(CCC1CCC(NC(=O)c3ccc(-c4ccccc4)s3)CC1)CC2 (centres unmarked) [TCMDC-139837]   % Inhibition   -13.04%
16  NC(=O)c1cccc(C(=O)Nc2cccc(-c3csc(-c4nc5ccccc5[nH]4)c3)c2)c1 [TCMDC-132399]   % Inhibition   -9.606%
17  Clc1cc(Cl)c2cc(CNCCCNc3ccc4ccccc4n3)[nH]c2c1 [TCMDC-140495]   % Inhibition    95.02%
18  Cc1cccc2[nH]c(-c3ccc(-c4cccc(NC(=O)C(C)CN(C)C)c4)cc3)nc12 (centres unmarked) [TCMDC-137103]   % Inhibition   -53.92%
19  COc1ccc(C(=O)NCc2ccc(N)nc2C)cc1Nc1ncc(-c2cccc(N(C)C)c2)cn1 [TCMDC-132420]   % Inhibition   -21.32%
20  COc1ccc2nccc([C@@H](O)CN3CCC(NCC(=O)Nc4cc(F)cc(F)c4)CC3)c2n1 [TCMDC-140675]   % Inhibition   -19.08%
21  CC(C)(C)OC(=O)N1CCC(C2CCN(C(=O)OC(C)(C)C)CC2)CC1 [TCMDC-132002]   % Inhibition    7.482%
22  O=C(NCCCCCCNCc1ccc(-c2ccccc2)cc1)Nc1ccc(Cl)c(Cl)c1 [TCMDC-140706]   % Inhibition    4.226%
23  Cc1cc(CNCCCCCCCNCc2ccc(Cl)cc2)ccc1O [TCMDC-140417]   % Inhibition   -6.741%
24  CCCN(C(=O)c1ccccc1C)c1nnc(-c2cccc(C)c2)s1 [TCMDC-124387]   % Inhibition    20.16%
25  COc1ccc2[nH]cc(C3CCN(CCC4CCN(C(=O)/C=C/c5ccc(Cl)c(Cl)c5)CC4)CC3)c2c1 [TCMDC-139658]   % Inhibition   -35.62%
26  O=S(=O)(NCCN1CCCC1)c1ccc(-c2cccc(CNCc3ccc(F)cc3)c2)s1 [TCMDC-132273]   % Inhibition    98.81%
27  COc1cccc2cc(C(=O)N[C@@H](CC(C)C)C(=O)N[C@H](/C=N/NC(=O)N3CCN(C)CC3)CCc3ccccc3)oc12 [TCMDC-136052]   % Inhibition    37.67%
28  N=C(N)c1ccc2[nH]c(-c3cc4cc(C(=N)N)ccc4o3)cc2c1 [TCMDC-137436]   % Inhibition   -17.43%
29  CCCCNC(=O)c1[nH]c2c(NC(=O)COc3ccccc3)cccc2c1-c1cccc(NC(=O)C(N)CO)c1 (centres unmarked) [TCMDC-140060]   % Inhibition   -98.74%
30  N#Cc1ccc(CNCCCCCCCNCc2ccc(-c3ccccc3)cc2)cc1 [TCMDC-140407]   % Inhibition    71.46%
31  COc1ccc2nccc(N3CCC(CCNCc4ccc5c(n4)NC(=O)CS5)CC3)c2c1.Cl [TCMDC-141905]   % Inhibition   -14.76%
32  Cc1cc(CNCCCCCNCc2ccc(Cl)cc2)ccc1O [TCMDC-140411]   % Inhibition    48.45%
33  O=c1c2c([nH]c3cc(Cl)ccc13)CCCC2 [TCMDC-123504]   % Inhibition    42.94%
34  CCN1CCN(C(=O)NC(C(=O)N2CCCC(COc3ccc(Cc4ccccc4)cc3)C2)c2cccs2)C(=O)C1=O (centres unmarked) [TCMDC-139273]   % Inhibition    35.06%

Where do the numbers come from? From paper PMC4552634.
